Biological target: human TLR8 (Homo sapiens, UniProt Q9NR97)
Sequence (Q9NR97 27-1041): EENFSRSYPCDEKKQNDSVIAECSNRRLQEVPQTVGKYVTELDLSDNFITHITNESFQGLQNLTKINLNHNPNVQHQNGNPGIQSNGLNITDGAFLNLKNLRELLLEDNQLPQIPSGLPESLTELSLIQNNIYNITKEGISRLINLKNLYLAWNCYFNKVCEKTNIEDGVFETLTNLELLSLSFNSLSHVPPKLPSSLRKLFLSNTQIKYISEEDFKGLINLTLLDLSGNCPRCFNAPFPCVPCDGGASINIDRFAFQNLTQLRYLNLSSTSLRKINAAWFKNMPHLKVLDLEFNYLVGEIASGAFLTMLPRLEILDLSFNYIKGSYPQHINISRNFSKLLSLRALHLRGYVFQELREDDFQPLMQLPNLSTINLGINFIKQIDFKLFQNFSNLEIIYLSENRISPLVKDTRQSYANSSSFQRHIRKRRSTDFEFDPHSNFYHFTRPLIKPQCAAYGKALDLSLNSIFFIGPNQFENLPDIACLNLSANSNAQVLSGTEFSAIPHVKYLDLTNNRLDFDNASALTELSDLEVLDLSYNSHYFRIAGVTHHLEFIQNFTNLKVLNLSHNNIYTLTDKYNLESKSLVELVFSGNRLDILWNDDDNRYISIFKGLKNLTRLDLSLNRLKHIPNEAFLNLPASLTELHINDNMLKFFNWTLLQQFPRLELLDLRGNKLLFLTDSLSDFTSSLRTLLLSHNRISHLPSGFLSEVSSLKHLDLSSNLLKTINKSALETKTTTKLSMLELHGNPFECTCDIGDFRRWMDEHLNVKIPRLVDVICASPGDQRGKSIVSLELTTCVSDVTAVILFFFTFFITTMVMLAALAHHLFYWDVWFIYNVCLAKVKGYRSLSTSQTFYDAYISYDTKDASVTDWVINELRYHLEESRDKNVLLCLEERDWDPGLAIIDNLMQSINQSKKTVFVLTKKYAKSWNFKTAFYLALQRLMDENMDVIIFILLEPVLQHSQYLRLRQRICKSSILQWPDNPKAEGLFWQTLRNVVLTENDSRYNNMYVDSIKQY
Assay: TLR7/8/9 Inhibition Reporter Assays (TLR8)
Details: HEK-Blue cells overexpressing human TLR8, SEAP reporter, stimulated with TLR8 ligand R848
pIC50: −log10 of the molar value.
measurementName: pIC50

Give pIC50 only, for COc1ccc(-c2nc3c(C)nc(-c4ccc(N5CCN(C6CCC6)CC5)cc4)cc3n2C)cc1OC , using human TLR8 (Homo sapiens, UniProt Q9NR97) data.
< 4.30

More entries:
Give pIC50 only, for COc1ccc(-c2nc3c(C)nc(-c4ccc(N5CCC6(CC5)CN(C5COC5)C6)cc4)cc3n2C)cc1OC , using human TLR8 (Homo sapiens, UniProt Q9NR97) data.
< 4.30

Give pIC50 only, for CC(C)CN1CCC(N2CC=C(c3cc4c(nc(-c5ccc(S(C)(=O)=O)cc5)n4C)c(C(F)(F)F)n3)CC2)CC1 , using human TLR8 (Homo sapiens, UniProt Q9NR97) data.
< 4.30

// provenance: patent US20250163054A1
